Tested on: Plasmodium falciparum
measurement.description: Screen against P. falciparum Asexual Blood Stage (ABS), at 5uM
Assay type: functional, Dd2
test.settings: tested at 5 uM
In all, about 65,000 compounds went through this assay and about 2,100 (3.2%) showed an effect of 50% or more. The median lay at about -52%. The sample as a whole holds a higher share of strong results than the screen did.
Here, each record is paired with measured INHIBITION data.
Respond numerically; units are % and should not be typed.

[
  {
    "compound": "COc1ccc(Oc2ncccc2F)cc1CN1CCCC1",
    "INHIBITION, %": 15.9
  },
  {
    "compound": "CC1CCCN1C1CCN(C(=O)c2cccc(F)c2)CC1 (centres undefined)",
    "INHIBITION, %": -14.6
  },
  {
    "compound": "Cc1csc(CCCNC(C)CC(=O)Nc2ccc(F)cc2)n1 (centres undefined)",
    "INHIBITION, %": 50.5
  },
  {
    "compound": "COc1ccc(Oc2cccc(C#N)n2)cc1CN1CCCC1",
    "INHIBITION, %": -20.2
  },
  {
    "compound": "COc1ccccc1NC(=O)CC(C)NCCc1sc(C)nc1C (centres undefined)",
    "INHIBITION, %": 22.2
  },
  {
    "compound": "Cc1nnc2ccc(N3CCC(C(=O)Nc4nccs4)CC3)nn12",
    "INHIBITION, %": -16.3
  },
  {
    "compound": "COCCCC1CCCN(Cc2c(C)ccc3ncccc23)C1 (centres undefined)",
    "INHIBITION, %": 37.2
  },
  {
    "compound": "O=C(CN1CCN(C(=O)c2cccc(-c3ccoc3)c2)CC1)C1CC1",
    "INHIBITION, %": -3.7
  },
  {
    "compound": "CCn1cc(CN2CCC(c3[nH]ncc3S(C)(=O)=O)C2)cn1 (centres undefined)",
    "INHIBITION, %": -44
  },
  {
    "compound": "CC1CCCN1C1CCN(C(=O)c2cccc(-c3ccoc3)c2)CC1 (centres undefined)",
    "INHIBITION, %": 53.6
  }
]

Please examine the following record next.
Task: Field request: INHIBITION | item: Cc1occc1C(=O)N1CCC2(CCN(Cc3ccccn3)C2=O)C1 (centres undefined)
Output: -30.7

* * *

Test system: Plasmodium falciparum
measurement.description: Screen against P. falciparum Asexual Blood Stage (ABS), at 5uM
Type: functional, Dd2
test.settings: tested at 5 uM
Screen size: about 65,000 compounds; about 2,100 (3.2%) showed an effect of 50% or more. The median lay at about -52%. The list comes from a sample in which strong results are over-represented; it also holds close analogues and randomly drawn compounds.
property: INHIBITION (%)
Report only the number, with the unit % understood.

// below: answered molecules
[
  {
    "molecule": "COCC(=O)N1CCC2(C1)c1ccccc1S(=O)(=O)N2C (centres undefined)",
    "property": "INHIBITION",
    "experimental.value": -58.6
  },
  {
    "molecule": "CC1CCCN(CCNC(=O)c2ccn(-c3ccccc3)n2)C1 (centres undefined)",
    "property": "INHIBITION",
    "experimental.value": 50.8
  },
  {
    "molecule": "CC(C)(CNC(=O)C(C)(C)c1ccccc1F)C(N)=O",
    "property": "INHIBITION",
    "experimental.value": -83
  },
  {
    "molecule": "COCCN1CCN(CCCS(C)(=O)=O)CC1C (centres undefined)",
    "property": "INHIBITION",
    "experimental.value": -42.5
  },
  {
    "molecule": "c1coc(CN2CC[C@H]3O[C@@H](COCC4CC4)CC[C@H]32)c1",
    "property": "INHIBITION",
    "experimental.value": -93.2
  }
]

Task: Endpoint output: INHIBITION of `Cc1ccccc1SC1CCN(C(=O)CCCS(N)(=O)=O)CC1` . Value?
Output: -124

Task: Report INHIBITION for CC(NCCCN1CCCC1=O)c1ccc(F)cc1N(C)C (centres undefined) please.
Output: -24.45

Task: Value lookup for INHIBITION; key = `CN1CCN(C(=O)c2occc2CN2C(=O)Cc3ccccc32)CC1`
Output: 54.3

Task: # lookup: INHIBITION of `Cc1cc(S(=O)(=O)N2CC[C@@H](O)C2)c(Cl)cc1F`
Output: -123

Task: Would you mind telling me what INHIBITION value was observed for `Cc1occc1C(=O)N1C[C@@H]2CCCO[C@@H]2[C@H](NC(=O)CC2CC2)C1` ?
Output: -27.2

Task: # INHIBITION lookup, item `CN(C)C(C)(C)CNC(=O)C(C)(C)c1ccccc1F`
Output: 53.3

* * *

# reported INHIBITION; entries follow
Tested on: Plasmodium falciparum
measurement.description: Screen against P. falciparum Asexual Blood Stage (ABS), at 5uM
Format: functional, Dd2
test.settings: tested at 5 uM
The whole screen tested about 65,000 compounds, of which about 2,100 (3.2%) showed an effect of 50% or more. The median lay at about -52%. This excerpt belongs to a sample that is enriched for strong results.
A number alone suffices; assume %.

Some solved entries appear below for comparison.
[
  {
    "compound": "CCOC(=O)CCN(Cc1cccnc1)C(=O)c1cc(Cl)c[nH]1",
    "target.desc": "Plasmodium falciparum",
    "experimental.value": -43.4
  },
  {
    "compound": "COc1ccc(-c2ccccc2CN)c(OC)c1",
    "target.desc": "Plasmodium falciparum",
    "experimental.value": 60.2
  },
  {
    "compound": "COc1ccc(CNc2cnn(C)c(=O)c2Cl)cc1",
    "target.desc": "Plasmodium falciparum",
    "experimental.value": -21.1
  },
  {
    "compound": "COc1ccc(-c2ccnc(N)c2)c(OC)c1",
    "target.desc": "Plasmodium falciparum",
    "experimental.value": -90.3
  },
  {
    "compound": "O=C(CC1CN(Cc2ccccc2)CCO1)NCCN1CCOCC1 (configuration not stated)",
    "target.desc": "Plasmodium falciparum",
    "experimental.value": -108
  }
]

Task: Which INHIBITION is reported for this compound? `COc1ccc(CN)c(OC(F)F)c1`
Output: -30

Task: Query (compound): CCN(C(C)=O)c1nc(CN2CCCCC2Cn2cncn2)cs1 (configuration not stated) ; field requested: INHIBITION
Output: 9.81

* * *

Tested on: Plasmodium falciparum
measurement.description: Screen against P. falciparum Asexual Blood Stage (ABS), at 5uM
Type: functional, Dd2
test.settings: tested at 5 uM
Out of some 65,000 compounds screened, about 2,100 (3.2%) showed an effect of 50% or more. The median lay at about -52%. Shown is part of a subset that was picked to be rich in strong results.
If the reported INHIBITION equals or exceeds -20%, assign 1.0. If not, assign 0.0.

[
  {
    "compound": "Cc1cc(=O)n2nc(Oc3cccc(C(N)=O)c3)sc2n1",
    "target.desc": "Plasmodium falciparum",
    "group": 0.0
  }
]

Task: Reported INHIBITION reaches at least -20% for `c1cc(CCN2CCC(NCc3ccsc3)CC2)ccn1` ?
Output: 1.0

Task: Has `CCc1cccc(N2CCC(NC(=O)c3ccoc3C)CC2)c1` a recorded INHIBITION greater than or equal to -20%?
Output: 1.0

Task: Form field: INHIBITION at least -20%? Entry: Cc1nc(CN2CCCCC2Cn2cncn2)nc2ccccc12 (configuration not stated)
Output: 0.0

Task: Identify whether the reported INHIBITION of the following compound is -20% or greater: `CN(C)c1ccnc(N2CCC(NCCOc3ccccc3)CC2)n1`
Output: 1.0

Task: Form field: INHIBITION at least -20%? Entry: CNS(=O)(=O)CCCN1CCCC1c1noc(C)n1 (configuration not stated)
Output: 0.0

Task: API: above_or_equal(metric=INHIBITION, cutoff=-20%) for item `Cc1nc(C)c(C)c(N2CCC(NCCOc3ccccc3)CC2)n1`
Output: 1.0

Task: Does the reported INHIBITION for Cc1nc(CN2CCCC(NCCOc3ccccc3)C2)no1 (configuration not stated) fall at or above the -20% mark?
Output: 0.0

Task: Is the recorded value of INHIBITION equal to or greater than -20% for this compound? Cc1nn(C)c(C)c1C1CCCN1Cc1nc(C)c2ccccc2n1 (configuration not stated)
Output: 1.0

Task: Determine whether measured INHIBITION meets or exceeds -20% for Cc1nc(CN2CCCC2Cn2cccn2)nc2ccccc12 (configuration not stated)
Output: 1.0

Task: Could you please find out whether `Cn1cc(N2CC3(CCN(C(=O)c4cccn4C)CC3)OCC2=O)cn1` has INHIBITION that meets -20% or exceeds it?
Output: 0.0

Task: Is it the case that Cc1nn(C)c(C)c1C1CCCN1Cc1nc2ccccc2n1C (configuration not stated) has INHIBITION reaching or exceeding -20%?
Output: 1.0
